Biological target: neuronal nitric oxide synthase (nNOS) from bovine brain (Bos taurus, UniProt A0A3Q1M6M2)
Sequence (A0A3Q1M6M2 entry or part of it): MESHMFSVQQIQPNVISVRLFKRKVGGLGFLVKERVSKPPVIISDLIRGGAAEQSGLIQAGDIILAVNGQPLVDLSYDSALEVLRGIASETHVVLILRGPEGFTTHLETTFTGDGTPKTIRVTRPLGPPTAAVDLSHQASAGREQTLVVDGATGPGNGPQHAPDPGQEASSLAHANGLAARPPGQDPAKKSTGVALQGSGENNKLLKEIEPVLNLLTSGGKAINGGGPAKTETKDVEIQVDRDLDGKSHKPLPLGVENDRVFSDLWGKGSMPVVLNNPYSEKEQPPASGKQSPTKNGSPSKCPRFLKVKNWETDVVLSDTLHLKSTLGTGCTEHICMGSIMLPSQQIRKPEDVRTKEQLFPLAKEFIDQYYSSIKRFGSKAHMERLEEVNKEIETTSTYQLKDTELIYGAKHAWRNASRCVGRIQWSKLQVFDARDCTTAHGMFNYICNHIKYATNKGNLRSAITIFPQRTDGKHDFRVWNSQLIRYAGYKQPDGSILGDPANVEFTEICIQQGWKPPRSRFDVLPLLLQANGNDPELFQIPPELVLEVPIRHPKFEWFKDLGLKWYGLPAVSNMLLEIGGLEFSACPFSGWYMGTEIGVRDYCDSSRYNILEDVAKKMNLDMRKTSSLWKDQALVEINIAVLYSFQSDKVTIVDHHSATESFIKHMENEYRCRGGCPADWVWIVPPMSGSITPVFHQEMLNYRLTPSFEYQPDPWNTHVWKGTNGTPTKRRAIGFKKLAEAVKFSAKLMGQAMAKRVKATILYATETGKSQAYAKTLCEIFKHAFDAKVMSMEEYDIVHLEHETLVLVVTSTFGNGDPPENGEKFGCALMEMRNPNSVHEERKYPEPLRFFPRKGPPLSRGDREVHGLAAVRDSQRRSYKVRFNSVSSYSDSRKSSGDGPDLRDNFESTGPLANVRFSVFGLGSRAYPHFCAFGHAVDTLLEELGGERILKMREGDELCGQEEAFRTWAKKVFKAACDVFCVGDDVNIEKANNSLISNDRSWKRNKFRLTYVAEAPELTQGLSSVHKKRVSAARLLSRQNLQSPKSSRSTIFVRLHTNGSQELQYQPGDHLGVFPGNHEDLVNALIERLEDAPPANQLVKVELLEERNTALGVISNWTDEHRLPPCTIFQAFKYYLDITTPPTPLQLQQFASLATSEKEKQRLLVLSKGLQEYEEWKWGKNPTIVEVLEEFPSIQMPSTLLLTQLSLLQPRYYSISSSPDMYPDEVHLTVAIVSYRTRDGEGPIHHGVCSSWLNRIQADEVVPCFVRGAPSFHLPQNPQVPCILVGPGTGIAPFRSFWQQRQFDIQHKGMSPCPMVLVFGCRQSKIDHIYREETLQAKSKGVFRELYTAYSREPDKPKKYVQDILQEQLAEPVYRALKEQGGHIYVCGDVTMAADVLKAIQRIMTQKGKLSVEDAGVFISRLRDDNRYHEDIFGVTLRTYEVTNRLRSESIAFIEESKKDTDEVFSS
Assay: Hemoglobin capture assay of nitric oxide formation, nNOS
Conditions: Table 2 dipeptides; nNOS over eNOS
Peptide text beside a SMILES is read from it.
// reported nNOS/eNOS selectivity per item

>  <Compound>
N=C(NCCC[C@H](NC(=O)[C@@H](N)Cc1ccccc1)C(=O)OCc1ccccc1)N[N+](=O)[O-] [compound 6, L-Phe-L-Arg^NO2 -OBn] (HELM PEPTIDE1{F.[N=C(NCCC[C@H](N[*:1])C(=O)[*:2])N[N+](=O)[O-]].[c1ccc(CO[*:1])cc1]}$$$$V2.0)

>  <nNOS/eNOS selectivity>
2.3

$$$$
>  <Compound>
N=C(NCCC[C@H](NC(=O)[C@@H](N)Cc1ccccc1)C(=O)O)N[N+](=O)[O-] [compound 2, L-Phe-L-Arg^NO2] (HELM PEPTIDE1{F.[N=C(NCCC[C@H](N[*:1])C(=O)O)N[N+](=O)[O-]]}$$$$V2.0)

>  <nNOS/eNOS selectivity>
3.5

$$$$
>  <Compound>
COC(=O)[C@H](Cc1ccccc1)NC(=O)[C@H](N)CCCNC(=N)N[N+](=O)[O-]

>  <nNOS/eNOS selectivity>
4.8

$$$$
>  <Compound>
COC(=O)[C@@H](CCCN=C(N)N[N+](=O)[O-])NC(=O)[C@H](N)Cc1ccccc1 [compound 12, D-Phe-D-Arg^NO2 -OMe] (HELM PEPTIDE1{[dF].[N=C(NCCC[C@@H](N[*:1])C(=O)[*:2])N[N+](=O)[O-]].[CO[*:1]]}$$$$V2.0)

>  <nNOS/eNOS selectivity>
2.5

$$$$
>  <Compound>
COC(=O)[C@@H](Cc1ccccc1)NC(=O)[C@H](N)CCCNC(=N)N[N+](=O)[O-]

>  <nNOS/eNOS selectivity>
2.5

$$$$

###

Listed next: entries and their corresponding pKi.
Biological target: recombinant bovine endothelial nitric oxide synthase (eNOS) (Bos taurus, UniProt P29473)
Construct: made in house; host or cells: E. coli
Experiment: Hemoglobin capture assay of nitric oxide formation, eNOS
Type: biochemical
Details: Table 2, Dixon plots
pKi: −log10 of the molar value. Peptide text beside a SMILES is read from it.
Readout kind: pKi

>  <Compound>
COC(=O)[C@@H](Cc1ccccc1)NC(=O)[C@H](N)CCCNC(=N)N[N+](=O)[O-] [compound 9, D-Arg^NO2 -D-Phe-OMe]

>  <Experimental value>
3.43

$$$$
>  <Compound>
COC(=O)[C@@H](CCCN=C(N)N[N+](=O)[O-])NC(=O)[C@H](N)Cc1ccccc1 [compound 12, D-Phe-D-Arg^NO2 -OMe] (HELM PEPTIDE1{[dF].[N=C(NCCC[C@@H](N[*:1])C(=O)[*:2])N[N+](=O)[O-]].[CO[*:1]]}$$$$V2.0)

>  <Experimental value>
5.30

$$$$
>  <Compound>
N=C(NCCC[C@H](N)C(=O)N[C@@H](Cc1ccccc1)C(=O)O)N[N+](=O)[O-] [compound 1, L-Arg^NO2 L-Phe]

>  <Experimental value>
3.40

$$$$
>  <Compound>
COC(=O)[C@@H](CCCNC(=N)N[N+](=O)[O-])NC(=O)[C@@H](N)Cc1ccccc1 [compound 10, L-Phe-D-Arg^NO2 -OMe] (HELM PEPTIDE1{F.[N=C(NCCC[C@@H](N[*:1])C(=O)[*:2])N[N+](=O)[O-]].[CO[*:1]]}$$$$V2.0)

>  <Experimental value>
3.82

$$$$
>  <Compound>
N=C(NCCC[C@H](NC(=O)[C@@H](N)Cc1ccccc1)C(=O)O)N[N+](=O)[O-] [compound 2, L-Phe-L-Arg^NO2] (HELM PEPTIDE1{F.[N=C(NCCC[C@H](N[*:1])C(=O)O)N[N+](=O)[O-]]}$$$$V2.0)

>  <Experimental value>
3.31

$$$$
